Sourced from patent EP0357092B1

test: Acute mammalian toxicity (oral LD50); conditions: mouse, in vivo; oral, male Jcl-ICR mice, dispersed in aqueous 0.2 % carboxymethylcellulose; read-out: LD₅₀ (acute, oral)
measured_metric: LD50 (mg/kg)
Numeric only. Scale: mg/kg

-- ask Quick one: LD50 of O=Cc1ccc(O)c(O)c1 [3,4-dihydroxy-benzaldehyde, 3,4-dihydroxybenzaldehyde, reference compound] ?
-- reply 1500
